Test system: Klebsiella spp. (WT)
Experiment: microbe, parasite or virus in culture
Type: cell-based
Conditions: Klebsiella spp. (WT), 159 isolates; read-out: MIC90
measured endpoint: MIC90

Record summary for CO/N=C(\C(=O)N[C@@H]1C(=O)N2C(C(=O)[O-])=C(C[N+]3(C)CCCC3)CS[C@H]12)c1csc(N)n1 [Cefepime] : reported MIC90 = ≤ 1 mg/L

Record summary for CC1(C)S[C@@H]2[C@H](NC(=O)[C@H](N)c3ccccc3)C(=O)N2[C@H]1C(=O)O [Ampicillin] : reported MIC90 = > 64 mg/L

Record summary for CC(C)(O/N=C(\C(=O)N[C@@H]1C(=O)N2C(C(=O)[O-])=C(C[n+]3ccccc3)CS[C@H]12)c1csc(N)n1)C(=O)O [Ceftazidime] : reported MIC90 = ≤ 1 mg/L
